The following variants are listed with their measured abundance fitness values.
B1: Neutrophil cytosol factor 2, residues 456 to 514; numbered along this chain, P19878 (parent)
chain: LKKGSQVEALFSYEATQPEDLEFQEGDIILVLSKVNEEWLEGECKGKVGIFPKVFVEDC

# Variants of: B1
# assay overview: abundance fitness (aPCA) (normalised: wild type 0, dead -1); higher = more abundant; growth selection in yeast, the domain comes from the species named
# assay context: Homo sapiens
Hey, just send me the number, nothing else.

Please review the entries below; each comes with its answer.
mutant name: Q24M
abundance fitness: -0.311
--
mutant name: S12I
abundance fitness: -0.069

Query: abundance fitness; subject: S33R
0.59

Same for E43S
0.025
